# measured_target: T1, GFP-9S library array, motif 4 ND N98M (synthetic construct, N98M)
# T1 chain: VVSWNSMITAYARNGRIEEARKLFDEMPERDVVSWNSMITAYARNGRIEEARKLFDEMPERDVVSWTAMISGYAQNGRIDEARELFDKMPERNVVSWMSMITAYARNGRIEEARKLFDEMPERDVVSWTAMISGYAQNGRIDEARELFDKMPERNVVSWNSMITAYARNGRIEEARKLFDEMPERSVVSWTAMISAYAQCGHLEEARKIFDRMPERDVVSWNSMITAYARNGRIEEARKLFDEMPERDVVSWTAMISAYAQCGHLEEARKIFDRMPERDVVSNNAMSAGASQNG
# experimental_protocol: high-throughput RNA pulldown from lysate on Ni-NTA beads; HRP: 50 mM Tris pH 8, 150 mM NaCl, 1 mM beta-mercaptoethanol, 50 ug/ml BSA, 3 ug/ml yeast RNA, 0.5% heparin; ITC and FP: Tris pH 8, 200 mM KCl, 5% glycerol; MST: 50 mM Tris pH 8, 200 mM NaCl, 1 mM DTT, BSA, heparin, 0.05% Tween 20
# settings: tags: N-terminal His-eGFP; label: 5' IRDye 800CW
readout: Kd

AUUAAACGUGA (ssRNA) [IR-rpoA-A] has a reported Kd of 296 nM

More entries:
AUUAUACGUGA (ssRNA) [IR-rpoA-U] has a reported Kd of 129 nM
